Reference for the values: ChEMBL document CHEMBL1122951

- experimental system: Chitin synthase 1 (Candida albicans)
- method summary: Inhibitory activity against chitin synthase from Candida albicans at a concentration 25 uM

# molecular string, inhibition / %
data = [
    ("C[C@@H](N)C(=O)N[C@@H](C(=O)O)[C@H]1O[C@@H](n2ccc(=O)[nH]c2=O)[C@H](O)[C@@H]1O", 0),
    ("C[C@H](N)C(=O)N[C@@H](C(=O)O)[C@H]1O[C@@H](n2ccc(=O)[nH]c2=O)[C@H](O)[C@@H]1O", 20),
    ("C[C@H](N)C(=O)N(C)[C@@H](C(=O)O)[C@H]1O[C@@H](n2ccc(=O)[nH]c2=O)[C@H](O)[C@@H]1O", 0),
    ("NC(=O)NCCC[C@@H](N)C(=O)N[C@@H](C(=O)O)[C@H]1O[C@@H](n2ccc(=O)[nH]c2=O)[C@H](O)[C@@H]1O", 37),
]

====

Parameter inhibition: see the listing below.
- experimental system: UniProt P23316
- Sequence (P23316 whole entry, looked up): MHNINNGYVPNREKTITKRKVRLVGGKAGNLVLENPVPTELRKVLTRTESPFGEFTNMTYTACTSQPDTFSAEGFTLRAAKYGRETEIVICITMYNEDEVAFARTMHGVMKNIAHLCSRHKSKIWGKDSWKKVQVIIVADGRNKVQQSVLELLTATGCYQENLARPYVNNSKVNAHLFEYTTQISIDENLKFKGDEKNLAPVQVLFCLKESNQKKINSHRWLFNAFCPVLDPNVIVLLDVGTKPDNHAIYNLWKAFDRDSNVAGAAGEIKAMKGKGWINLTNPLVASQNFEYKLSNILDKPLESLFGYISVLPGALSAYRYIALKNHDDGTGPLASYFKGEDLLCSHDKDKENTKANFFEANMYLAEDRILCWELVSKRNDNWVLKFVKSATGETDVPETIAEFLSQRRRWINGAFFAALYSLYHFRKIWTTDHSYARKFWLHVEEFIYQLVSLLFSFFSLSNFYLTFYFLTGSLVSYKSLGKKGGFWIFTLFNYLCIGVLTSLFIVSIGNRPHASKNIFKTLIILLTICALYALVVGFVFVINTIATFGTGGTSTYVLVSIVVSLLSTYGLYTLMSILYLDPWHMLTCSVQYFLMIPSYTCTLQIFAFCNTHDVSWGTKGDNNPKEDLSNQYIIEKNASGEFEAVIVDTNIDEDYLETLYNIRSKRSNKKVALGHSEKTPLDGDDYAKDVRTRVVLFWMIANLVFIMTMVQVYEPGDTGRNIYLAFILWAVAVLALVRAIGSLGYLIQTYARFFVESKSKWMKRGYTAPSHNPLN
- method summary: Inhibitory activity against chitin synthase from Candida albicans at a concentration 100 uM
experimental endpoint: inhibition (%)

# molecule, experimental system, experimental endpoint, unit of measurement, obs value
measured = [
    ("NC(=O)NCCC[C@@H](N)C(=O)N[C@H](C(=O)O)[C@H]1O[C@@H](n2ccc(=O)[nH]c2=O)[C@H](O)[C@@H]1O", "UniProt P23316", "inhibition", "%", 0),
    ("C[C@H](N)C(=O)N(C)[C@@H](C(=O)O)[C@H]1O[C@@H](n2ccc(=O)[nH]c2=O)[C@H](O)[C@@H]1O", "UniProt P23316", "inhibition", "%", 0),
    ("C[C@@H](N)CNC(C(=O)O)C1OC(n2ccc(=O)[nH]c2=O)C(O)C1O (some centres undefined)", "UniProt P23316", "inhibition", "%", 2),
    ("C[C@H](N)C(=O)N[C@@H](C(=O)O)[C@H]1O[C@@H](n2ccc(=O)[nH]c2=O)[C@H](O)[C@@H]1O", "UniProt P23316", "inhibition", "%", 45),
]

====

- experimental system: Chitin synthase 1 (Candida albicans)
- method summary: Inhibitory activity against chitin synthase from Candida albicans at a concentration 5 uM
In this section we review reported inhibition values for a set of compounds.
experimental endpoint: inhibition

# compound, experimental system, obs value
data = [
    ("C[C@@H](N)CNC(C(=O)O)C1OC(n2ccc(=O)[nH]c2=O)C(O)C1O (stereo partly drawn)", "Chitin synthase 1 (Candida albicans)", "0%"),
    ("C[C@H](N)C(=O)N[C@@H](C(=O)O)[C@H]1O[C@@H](n2ccc(=O)[nH]c2=O)[C@H](O)[C@@H]1O", "Chitin synthase 1 (Candida albicans)", "0%"),
    ("C[C@@H](O)[C@H](N)C(=O)N[C@@H](C(=O)O)[C@H]1O[C@@H](n2ccc(=O)[nH]c2=O)[C@H](O)[C@@H]1O", "Chitin synthase 1 (Candida albicans)", "8%"),
]
